System: BDF1 mice, P388 leukemia ip, median survival T/C
Assay: NCI In Vivo Anticancer Drug Screen. Data for tumor model P388 Leukemia (intraperitoneal) in B6D2F1 (BDF1) mice
Settings: endpoint: median survival time; dose: 50.0 mg/kg/injection; schedule: Q01DX009 (ip); vehicle: water; higher = longer survival
Inconclusive results and toxic doses are left out.
assay readout: T/C

Some molecules with known T/C results, for comparison:
chem smiles | tested target | value
SC1CC[N-]CC1.SC1CC[N-]CC1.[Cl][Pt+2][Cl] | BDF1 mice, P388 leukemia ip, median survival T/C | 107 % of control
CN(C)CCCNC1=CC(=O)c2ccccc2C1=O | BDF1 mice, P388 leukemia ip, median survival T/C | 94 % of control

Could you tell me which T/C is on file for "COc1cc2c[n+](C)c3c4cc(OC)c(OC)cc4ccc3c2cc1OC" ?
100 % of control

Next molecule up: "C/C(CC(=O)O)=C(\C)C(=O)O"
100 % of control

For "OCCN(CCO)c1cc(OCc2ccccc2)cc(OCc2ccccc2)c1" then?
100 % of control

---

System: BDF1 mice, P388 leukemia ip, median survival T/C
Assay: NCI In Vivo Anticancer Drug Screen. Data for tumor model P388 Leukemia (intraperitoneal) in B6D2F1 (BDF1) mice
Conditions: endpoint: median survival time; dose: 200.0 mg/kg/injection; schedule: Q04DX002 (ip); vehicle: saline with Tween-80; higher = longer survival
Inconclusive results and toxic doses are left out.
// values below are reported T/C

Consider the following illustrative entries.
molecule | T/C
CC1CCCCN1O (centres undefined) | 105 % of control
CCN(Cc1ccccc1)c1ccc(/C=C/c2nccc3ccccc23)cc1 | 116 % of control
CC(=O)Nc1ccccc1C1SCCCS1 | 106 % of control

Find the recorded T/C belonging to CC1(C)OC(COS(C)(=O)=O)C(COS(C)(=O)=O)O1 (centres undefined) and report it.
104 % of control

Can you check O=C(O)C1(O)CC(O)C(O)C(O)C1 (centres undefined) next?
94 % of control

---

System: BDF1 mice, P388 leukemia ip, median survival T/C
Assay: NCI In Vivo Anticancer Drug Screen. Data for tumor model P388 Leukemia (intraperitoneal) in B6D2F1 (BDF1) mice
Conditions: endpoint: median survival time; dose: 200.0 mg/kg/injection; schedule: Q01DX009 (ip); vehicle: water
Inconclusive results and toxic doses are left out. The calls were made as follows: active = survival T/C of 150% or more; inactive = T/C below 125% in these data.
Reply using exactly one outcome from label 1 (active), label 0 (inactive)

Study these solved cases before continuing.
chem smiles | category
O=C1CN(CCl)C(=O)CN1CCl | label 0
Cc1cnc(C#N)c(-n2ccnc2)n1 | label 0
Cc1cc(=O)c2cc(N)ccc2[nH]1 | label 0
COc1cc2cc3c4cc(OC)c(OC)cc4cc[n+]3c(C)c2cc1OC | label 1
O=c1cc(N=Nc2ccc(O)cc2)[nH]c(=O)[nH]1 | label 0

With those in mind, consider the next compound.
Which outcome was entered for the compound "O=C(O)CCC1(c2ccccc2)CCCC1" in this test?
label 0

---

System: BDF1 mice, P388 leukemia ip, median survival T/C
Experiment: NCI In Vivo Anticancer Drug Screen. Data for tumor model P388 Leukemia (intraperitoneal) in B6D2F1 (BDF1) mice
Conditions: endpoint: median survival time; dose: 100.0 mg/kg/injection; schedule: Q01DX009 (ip); vehicle: saline with Tween-80; higher = longer survival
Toxic doses and inconclusive results are not listed.
compounds and their reported T/C

compound | T/C
CCOC(=O)CSc1nc2nc(Cl)c(Cl)nc2[nH]1 | 92 % of control
COC(OC)c1ccccc1 | 115 % of control
CC1(C)C(=O)C2(C(=O)O)CCC1C2 (configuration not stated) | 100 % of control

T/C lookup needed for "COc1ccc(/C=C2\SC(=S)N(CCCN3CCOCC3)C2=O)c(OC)c1" , thanks.
92 % of control

---

Test system: BDF1 mice, P388 leukemia ip, median survival T/C
Assay: NCI In Vivo Anticancer Drug Screen. Data for tumor model P388 Leukemia (intraperitoneal) in B6D2F1 (BDF1) mice
Details: endpoint: median survival time; dose: 200.0 mg/kg/injection; schedule: Q04DX003 (ip); vehicle: saline with Tween-80; higher = longer survival
Toxic doses and inconclusive results are not listed.
assay readout: T/C

Past entries and their recorded results:
molecule | tested target | assay readout | value
CCCNC(=O)Nc1ccc(C)c(Cl)c1 | BDF1 mice, P388 leukemia ip, median survival T/C | T/C | 100 % of control
Ic1ncnc2nc[nH]c12 | BDF1 mice, P388 leukemia ip, median survival T/C | T/C | 104 % of control
Cc1ccc2nc(-c3ccccc3N)[nH]c2c1 | BDF1 mice, P388 leukemia ip, median survival T/C | T/C | 104 % of control
CCCC#CCOCC(O)CCl (configuration not stated) | BDF1 mice, P388 leukemia ip, median survival T/C | T/C | 108 % of control

I am curious: what T/C value has been reported for COc1ccc(C(=O)C(C)Br)c(OCc2ccccc2)c1OC (configuration not stated) ?
114 % of control

Continue with "c1ccc2c(c1)ccc1cc3c(ccc4ccccc43)cc12"
109 % of control

Now consider "CC(=O)N(C)Nc1ccccc1" .
105 % of control

Same question, "Cc1sc(N)c(C#N)c1C" this time
100 % of control

Then "COC(=O)c1cc(C(C)=O)ccc1OC(=O)c1ccccc1" ?
100 % of control

---

Test system: BDF1 mice, P388 leukemia ip, median survival T/C
Experiment: NCI In Vivo Anticancer Drug Screen. Data for tumor model P388 Leukemia (intraperitoneal) in B6D2F1 (BDF1) mice
Settings: endpoint: median survival time; dose: 50.0 mg/kg/injection; schedule: Q01DX009 (ip); vehicle: saline; higher = longer survival
Toxic doses and inconclusive results are not listed.
assay readout: T/C

compound | assay readout | value
O=P1(NCCCl)OCCCN1CCCl (configuration not stated) | T/C | 121 % of control
NOCc1cccc(CON)c1 | T/C | 91 % of control
CC[P+](CC)(CC)CCCCI | T/C | 99 % of control

Name the reported T/C value associated with the compound NCCCC(N)(CO)C(=O)O (configuration not stated)
91 % of control

And what about the compound "COc1cc2c[n+](C)c3c4cc(OC)c(OC)cc4ccc3c2cc1OC" ?
188 % of control

Entry to check: "Cc1nnc(NC(=O)CCl)s1"
100 % of control

Then what about the compound "O=C1C=C(Nc2ccccc2)CCC1" ?
99 % of control

Could you do the same for "CN(C)c1ccc(C(=O)O)cn1" , please?
100 % of control

How about "C[N+](C)(C)CCCC[N+](C)(C)C" ?
91 % of control

Lookup "O=[N+]([O-])c1ccc(N2CCCCC2)c([N+](=O)[O-])c1"
116 % of control

---

System: BDF1 mice, P388 leukemia ip, median survival T/C
Test: NCI In Vivo Anticancer Drug Screen. Data for tumor model P388 Leukemia (intraperitoneal) in B6D2F1 (BDF1) mice
Details: endpoint: median survival time; dose: 100.0 mg/kg/injection; schedule: Q04DX003 (ip); vehicle: saline; higher = longer survival
Inconclusive results and toxic doses are left out.
Here the recorded T/C is given for each entry.

Example results:
compound | T/C
CCOC(=O)CCOCOCCC(=O)OCC | 100 % of control
Cc1ccc2c(c1)CCCN2C | 104 % of control
O=C(O)C(O)C(=O)O | 95 % of control
O=S(=O)(O)CCN(CCO)CCO | 109 % of control
COc1cccc(N=C(N)N=C(N)N)c1 | 95 % of control
CC(Br)C(=O)NC(CO)C(=O)O (stereo not drawn) | 95 % of control
O=S(=O)(O)CNc1ccccc1 | 100 % of control
CC(CO)S(=O)(=O)C(C)(C)C (stereo not drawn) | 94 % of control
O=C1c2cccc(O)c2C(=O)c2c(OC3OC(CO)C(OC4OC(CO)C(O)C(O)C4O)C(O)C3O)cccc21 (stereo not drawn) | 103 % of control
N=c1cc(-c2ccc(Cl)cc2)ss1 | 105 % of control

Please give the measured T/C for this compound: "COc1ccc(/C=C/C(C)=O)cc1OC"
105 % of control

Can you check "COc1cc2c[n+](C)c3c4cc(OC)c(OC)cc4ccc3c2cc1OC" next?
113 % of control

Also need O=C1/C(=C\c2ccccc2)OC(c2ccccc2)O/C1=C/c1ccccc1 (stereo not drawn) , thanks.
120 % of control

---

System: BDF1 mice, P388 leukemia ip, median survival T/C
Assay: NCI In Vivo Anticancer Drug Screen. Data for tumor model P388 Leukemia (intraperitoneal) in B6D2F1 (BDF1) mice
Details: endpoint: median survival time; dose: 200.0 mg/kg/injection; schedule: Q01DX001 (ip); vehicle: saline; higher = longer survival
Toxic doses and inconclusive results are not listed.
assay readout: T/C

Please review the entries below; each comes with its answer.
molecule | tested target | T/C
O=S(=O)(O)c1cc(S(=O)(=O)O)c2cc(N=Nc3ccc(N(CC4CO4)CC4CO4)cc3)ccc2c1 (centres undefined) | BDF1 mice, P388 leukemia ip, median survival T/C | 102 % of control
CCCN(CCC)CCCOC(=O)c1ccc([N+](=O)[O-])cc1 | BDF1 mice, P388 leukemia ip, median survival T/C | 100 % of control
CC(C)=NNC(=O)C1CCN1Cc1ccccc1 (centres undefined) | BDF1 mice, P388 leukemia ip, median survival T/C | 93 % of control

// below: T/C requested for another molecule
Give the measured T/C of "C/C(CC(=O)O)=C(\C)C(=O)O" .
100 % of control
